Target: MDM2 (Homo sapiens, UniProt Q00987)
Sequence (Q00987 whole entry): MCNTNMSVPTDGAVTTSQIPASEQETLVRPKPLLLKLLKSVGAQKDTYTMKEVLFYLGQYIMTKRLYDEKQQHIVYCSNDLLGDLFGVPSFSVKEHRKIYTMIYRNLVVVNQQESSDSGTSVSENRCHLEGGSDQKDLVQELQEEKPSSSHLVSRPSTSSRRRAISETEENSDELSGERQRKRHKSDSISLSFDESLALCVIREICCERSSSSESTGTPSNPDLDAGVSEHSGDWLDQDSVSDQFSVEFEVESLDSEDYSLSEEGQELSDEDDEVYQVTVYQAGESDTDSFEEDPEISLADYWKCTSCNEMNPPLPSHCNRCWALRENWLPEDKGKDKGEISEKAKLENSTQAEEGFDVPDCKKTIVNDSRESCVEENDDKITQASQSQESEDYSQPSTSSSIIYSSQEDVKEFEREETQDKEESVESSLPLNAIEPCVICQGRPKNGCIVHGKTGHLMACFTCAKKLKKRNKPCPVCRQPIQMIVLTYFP
Assay: FP displacement of Texas Red-labelled p53 peptide from MDM2
Format: binding
quantity.kind: pIC50
Keep in mind that pIC50 stands for -log10 of concentration in molar terms.

Please fill in: pIC50 reported for CCCNc1nc(N)c2nc(-c3cn(C)nn3)n(C3Cc4ccccc4C3)c2n1 [14j] = 4.25

====

Molecular target: MDM2 (Homo sapiens, UniProt Q00987)
Assay: FP displacement of Texas Red-labelled p53 peptide from MDM2; binding confirmed by WaterLOGSY NMR
quantity.kind: IC50
Include the unit right after the number.

# IC50 of CCCNc1nc(NCC(=O)OCC)c2nc(-c3cn(C)nn3)n(C3Cc4ccccc4C3)c2n1 [14f] = 10 µM

Data origin: paper PMC4420247
